Target: murine CLDN18.2 (mCLDN18.2) (murine) (UniProt P56857)
Test: FACS, HEK293-mCLDN18.2 cells
RECORDED METRIC: EC50 (nM)
Write the value in nM as a bare number.

ch-252F11 (antibody, V domains shown, also called chimeric antibody of clone 252F11) VH: EIQLVESGGGLVRPGGSLKLSCAASGFSFKNYVMSWVRQSPERRLEWVAEIRTGGDYTYYVDTVTGRFTISRDNAKNTLYLEMTSLRSEDTATYYCARVGYGNSLDYWGQGTTLTVSS VL: DIVMTQSPSSLTVTAGEKVTMSCKSSQSLLNSGNQKNYLTWYQQKPGQPPKLLIYWASTRESGVPDRFTGSGSGTDFTLTISSVQAEDLAVYSCQNNYFYPLTFGAGTELELK    0.948

Let us move to another entry and its EC50.
query: For the binder ch-48H1 (antibody, V domains shown, also called chimeric antibody of clone 48H1) VH: QVQLQQPGAELVKPGTSVKLSCKASGYIFTNYWTHWMKQRPGQGLEWIGMIHPNSGSSNYNEKFKSKATLTVDRSSSTVYMQLRRLTSEDSAVYYCTRIHYGNSMDYWGQGTSVTVSS VL: DIVMTQSPSSLTVTAGEKVTMSCKSSQSLFNSGNQKNYLTWYQQKPGQPPKLLIYWASTWESGVPDRFTGSGSGTDFTLTISSVQAEDLAVYYCQNAYSYPFTFGSGTKLEIK , give its reported EC50.
result: 1.76
